test system: MS2 coat protein; experiment: apparent Kd, MS2 coat protein; higher = weaker binding; RNA-MaP array; FMN 200 µM where present; conditions: designed as: ON switch for flavin mononucleotide; no ligand
# reported apparent Kd; entries follow

[
  {
    "record_sequence": "GCGUUCUUGUAGAAGGUACAUACAAUAUCUUUUUAACACAUGACACAUGAGGAUCACCCAUGUUGUAAGGAUAUACAUGAACGC",
    "target_or_system": "MS2 coat protein",
    "apparent Kd": "6.8 nM"
  },
  {
    "record_sequence": "GUAGGGAUUACAUGAGGAUCACCCAUGUCAGAACGGGUAAUCAGAAGGUAUUAUUAGGGAGAGGGUAAGGAUAUGAUUUUUUAU",
    "target_or_system": "MS2 coat protein",
    "apparent Kd": "433 nM"
  },
  {
    "record_sequence": "GGAGCCGGCACUGAGGAUAUUCAUAUUAAAACAUGAGGAUCACCCAUGUAGGCCAGAAGGCCUUGGGAGAAGGCAGGUCGGCUCG",
    "target_or_system": "MS2 coat protein",
    "apparent Kd": "423 nM"
  },
  {
    "record_sequence": "GUAGCAUACAGAGGAUAUUCAAACGACAAAAGUCGACAUGAGGAUCACCCAUGUGGCGAAAGCCGGGAGAAGGCUGAAUGCUAC",
    "target_or_system": "MS2 coat protein",
    "apparent Kd": "15 nM"
  },
  {
    "record_sequence": "UUUUUAUAAGAGAAGGAGGACUUCAUGAGGAUCACCCAUGUGUUAGUACUUAGGAUAUUUAAUAACAUGAGGAUCACCCAUGUC",
    "target_or_system": "MS2 coat protein",
    "apparent Kd": "49.4 nM"
  },
  {
    "record_sequence": "AAAAGACAUGAGGAUCACCCAUGUCAAGACGUAGGAGGAUAUGUCGUGAAAAAAGACUUGACAGAAGGCCUGUGUC",
    "target_or_system": "MS2 coat protein",
    "apparent Kd": "18.7 nM"
  },
  {
    "record_sequence": "AAACACGGACAUGAGGAUCACCCAUGUGGCGAAAGCCUAACUAGAAGGCAGUAUGCAAAGCAUUCUGAGGAUAUGGGUUCCGUG",
    "target_or_system": "MS2 coat protein",
    "apparent Kd": "188 nM"
  },
  {
    "record_sequence": "GGAGACCUCACAGGAUAUGCUGGACUUUGUCCAGCAGAAGGGUGGAAACAUGAGGAUCACCCAUGUAUGGUCUCCAAAUUUAAU",
    "target_or_system": "MS2 coat protein",
    "apparent Kd": "89 nM"
  },
  {
    "record_sequence": "GGACGUCACAUUAACAUGAGGAUCACCCAUGUCUAUAGACAUGAGGAUAUGGAUCCUAAUUGGAUCCAGAAGGCAUGGACGUCC",
    "target_or_system": "MS2 coat protein",
    "apparent Kd": "787 nM"
  },
  {
    "record_sequence": "GCGUAAUAGGUGUAGCUAGUCGUGCAAGAAGGGUGGUGAACAUGAGGAUCACCCAUGUGGUCAGUACAGGAUAUUGCUAUACGA",
    "target_or_system": "MS2 coat protein",
    "apparent Kd": "561 nM"
  },
  {
    "record_sequence": "GGGUACGUUUCGUAGCAGUGUCAUCGAGAAGGCCCUGACAUGAGGAUCACCCAUGUUGUUACAUGGGAGGAUAUCGAUGAUGGG",
    "target_or_system": "MS2 coat protein",
    "apparent Kd": "48.4 nM"
  },
  {
    "record_sequence": "GCCGAACAUGAGGAUCACCCAUGUCCGGGUAGUCAAGGAUAUGGGAAGGCAAUGCCGUGGCCAGAAGGUGGCUAUC",
    "target_or_system": "MS2 coat protein",
    "apparent Kd": "99.3 nM"
  },
  {
    "record_sequence": "GUACAUGAGCAGAAGGGCAAUUAAUUAAAAUUUUAUGUUUAUCAGAUAUGCAGGAUAUGUUAAACAUGAGGAUCACCCAUGUAC",
    "target_or_system": "MS2 coat protein",
    "apparent Kd": "191 nM"
  },
  {
    "record_sequence": "GGUCCGCACUAGAAGGGUGACAUGAGGAUCACCCAUGUGCACUUCCGCUCUUAGCGGAAAGUGCCACAGGAUAUAGUGUGGAUU",
    "target_or_system": "MS2 coat protein",
    "apparent Kd": "80.6 nM"
  }
]
